Tested on: DENV-2 NGC strain (WT)
Protocol description: microbe, parasite or virus in culture
Format: cell-based
Condition description: Dengue virus, DENV2, A549, 48 h, read-out: EC50 (averaged)
Readout name: EC50

Given the molecule COc1cc(N[C@H](C(=O)c2c[nH]c3ccc(OC(F)(F)F)cc23)c2ccc(Cl)cc2OC)cc(S(C)(=O)=O)c1 [JNJ-1802] , what is its reported EC50? 0.019 nM

---

Tested on: DENV-2 NGC-Nluc
Protocol description: Antiviral assay using NGC-Nluc in Huh7 cells
Type: cell-based
Condition description: Huh7 cells
Readout name: EC50 (nM)
Express the result in nM but write the number alone.

Quick one: EC50 of `C#C[C@@]1(O)[C@H](O)[C@@H](CO)O[C@H]1n1ccc2c(N)ncnc21` ? 380

These measurements were taken from paper PMC12002330.
